Known Phage binding ELISA signal, Anti-PSMA Fab of a selection of binders
# target-system: T1, 006 PSMA Fab
# T1 construct: also called Anti-PSMA Fab
# assay-protocol: clonal phage ELISA; biotinylated PSMA Fab on neutravidin plate, bound phage detected with anti-M13-HRP
// keep it numeric: no unit symbol after the value

// solved cases for Phage binding ELISA signal, Anti-PSMA Fab follow
{"columns": ["binder", "observed"],
 "data": [
  ["QMITCQPKWMCEGF [Phage-3998]", 0.589],
  ["DGLICQPSWMCTGL [Phage-4001]", 0.554],
  ["HVTMCSPNWMCWGL [Phage-4006]", 0.485]
]}

Please find the next binder below.
Name the recorded Phage binding ELISA signal, Anti-PSMA Fab for MDVWCVPTWMCQHL [Phage-3995] .
0.627
